- ASSAY EXPLANATION: chemical genetic growth profiling, strain panel (AID 1159580);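 also: tested at 20 µM; growth read once vehicle control cultures reached saturation at 30 °C; 1 = growth at the plate median or of vehicle wells; lower values mean less growth of the strain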
- EXPERIMENTAL SETUP: S. cerevisiae deletion strains, growth OD, locus YOL147C, strain pex11
Hit rate of the full screen: of about 5,500 compounds, about 2,000 (36%) were called active. Roughly 18% stayed inconclusive and do not appear here. Rule as the data show it: active = normalized growth mostly below about 0.91 (no sharp cut-off); inconclusive = no clear call, values can overlap the other calls; inactive = mostly above about 0.92. Some of the results follow.
Allowed answers: active, inactive

Before answering, review these 3 worked examples.
Exam item: Which outcome was assigned to Cc1ccc(O)c(C(CCN(C(C)C)C(C)C)c2ccccc2)c1 (configuration not stated) in this test?
Marked response: inactive

Exam item: Per the records of this test, what outcome belongs to Cn1c(=O)c2c(ncn2CCCl)n(C)c1=O ?
Marked response: inactive

Exam item: Please let me know the test result on file for O=c1c(O)cccc2cc(O)c(O)c(O)c12 .
Marked response: active

New cases:
Exam item: Please share the test call associated with N[C@@H](C(=O)N[C@@H]1C(=O)N2C(C(=O)O)=C(Cl)CS[C@H]12)c1ccccc1 .
Marked response: inactive

Exam item: What is the recorded call for this compound in the test? CC1(C)CC23C(=O)CCC(O)C2(C)CCC13 (configuration not stated)
Marked response: inactive

Exam item: Can you look up the reported call for CCCCCC/C=C\CCCCCCCc1cccc(O)c1C(=O)O for me?
Marked response: inactive

Exam item: Kindly provide the recorded test outcome for the following compound: CC(C)Cn1c(=O)n(C)c(=O)c2[nH]cnc21
Marked response: inactive

Exam item: Dear colleague, could you share the recorded outcome for COc1ccc([C@@H](C)C(=O)c2ccc(O)cc2O)cc1 when you have a moment?
Marked response: active

---

- ASSAY EXPLANATION: chemical genetic growth profiling, strain panel (AID 1159580);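 also: tested at 20 µM; growth read once vehicle control cultures reached saturation at 30 °C; 1 = growth at the plate median or of vehicle wells; lower values mean less growth of the strain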
- EXPERIMENTAL SETUP: S. cerevisiae deletion strains, growth OD, locus YNL209W, strain ssb2
About 2,000 (36%) of roughly 5,500 compounds were called active. Inconclusive results (about 18%) are left out. No stated cut-off is given here; in the data, active means normalized growth mostly below about 0.91 (no sharp cut-off); inconclusive means no clear call, values can overlap the other calls; inactive means mostly above about 0.92. The list shows a part of the results.
One label from this list, please: class 1 for active, class 0 for inactive

Exam item: Can you look up the reported call for CC(=O)c1ccc[nH]1 for me?
Marked response: class 0

Exam item: Write down the call the test reported for this molecule. Item: O=c1c(O)c(-c2ccccc2)oc2cc(O)ccc12
Marked response: class 1

Exam item: Entry CC(C)N1C(=O)c2ccccc2NS1(=O)=O : call = ?
Marked response: class 0

Exam item: Hi team, can someone confirm the assay call for COc1cc(O)c2c(c1)C(=O)c1cc(C)cc(O)c1C2=O ?
Marked response: class 0

Exam item: Record request — test call for Oc1cccc2cccnc12
Marked response: class 1

New cases:
Exam item: Which outcome was entered for the molecule CCCc1ncc(C[n+]2ccccc2C)c(N)n1 in this test?
Marked response: class 0

Exam item: Write down the call the test reported for this molecule. Item: C/C(=C\CO)CC[C@H](C)CCC[C@H](C)CCCC(C)C
Marked response: class 1

Exam item: Test call for this molecule, please: O=C(O)c1cccnc1C(=O)O
Marked response: class 0

Exam item: Per the records of this test, what outcome belongs to O=C(O)C1=C(CSc2nnnn2CS(=O)(=O)O)CS[C@@H]2C(NC(=O)[C@H](O)c3ccccc3)C(=O)N12 (some centres not stated) ?
Marked response: class 0

Exam item: # fetch the recorded call for C=C[C@H]1CN2CC[C@H]1C[C@H]2[C@H](O)c1ccnc2ccccc12 here
Marked response: class 0

Exam item: So what was the verdict on CNC(C)[C@@H]1CC[C@@H](N)[C@@H](OC2[C@@H](N)C[C@@H](N)[C@H](OC3OC[C@](C)(O)[C@H](NC)[C@H]3O)[C@H]2O)O1 (some centres not stated) in this test?
Marked response: class 0

Exam item: Short answer needed: outcome of this test for O=C(O)CC[N+](=O)[O-] ?
Marked response: class 0

Exam item: How did this test come out for Cn1cnc2c1c(=O)[nH]c(=O)n2C ?
Marked response: class 0

Exam item: # lookup: test call for CC(=O)O[C@@H]1C2CC[C@@H]3C1(C[C@@H](O)[C@@]1(O)[C@@H](C[C@H](O)C1(C)C)[C@]3(C)O)C[C@@]2(C)O (some centres not stated)
Marked response: class 0

Exam item: Tell me the recorded outcome of this test for Cn1c(=O)[nH]c2ncn(C)c2c1=O .
Marked response: class 0

Exam item: Please let me know the test result on file for O=c1c(O)c(-c2ccccc2)oc2ccc3occc3c12 .
Marked response: class 1

Exam item: Answer briefly: the call reported for O=C(O)c1cc(=O)c2ccccc2[nH]1 in this assay.
Marked response: class 0

Exam item: Could you kindly confirm the outcome this assay logged for CC(=O)OC[C@@]1(O)C[C@@]23CCC4c5ccoc5CC[C@]4(C)C2CC[C@@H]1C3 (some centres not stated) ?
Marked response: class 0

Exam item: Kindly provide the recorded test outcome for the following molecule: COc1cc2c(cc1OC)C(C)NCC2 (configuration not stated)
Marked response: class 0

Exam item: Given COC(=O)C[C@H]1C(C)(C)[C@@H](OC(C)=O)[C@@H]2CC3=C4CC(=O)O[C@@H](c5ccoc5)[C@]4(C)CCC3[C@@]1(C)C2=O (some centres not stated) , state the outcome it received in this test.
Marked response: class 0

Exam item: Give the logged outcome of this assay for the following molecule: CC(=O)Oc1c(C)c(C)c2c(c1C)CCC(C)(CCCC(C)CCCC(C)CCCC(C)C)O2 (configuration not stated)
Marked response: class 0

Exam item: For C=CC[C@@H]1/C=C(\C)C[C@H](C)C[C@H](OC)[C@H]2O[C@@](O)(C(=O)C(=O)N3CCCC[C@H]3C(=O)O[C@H](/C(C)=C/[C@@H]3CC[C@@H](O)[C@H](OC)C3)[C@H](C)[C@@H](O)CC1=O)[C@H](C)C[C@@H]2OC , which call appears in the assay record?
Marked response: class 0

Exam item: What did the test return for CCCC(=O)Nc1ccc(OCC(O)CNC(C)C)c(C(C)=O)c1 (configuration not stated) ?
Marked response: class 0

Exam item: What is the recorded call for this molecule in the test? CC(=O)c1c(O)cc(O)cc1O
Marked response: class 0

Exam item: Recorded call for COc1cc(Cc2cnc(N)nc2N)cc(OC)c1OC ?
Marked response: class 0
